Target: T1, PUF4 RNA-binding domain (Saccharomyces cerevisiae, UniProt P25339 537-888)
T1 sequence: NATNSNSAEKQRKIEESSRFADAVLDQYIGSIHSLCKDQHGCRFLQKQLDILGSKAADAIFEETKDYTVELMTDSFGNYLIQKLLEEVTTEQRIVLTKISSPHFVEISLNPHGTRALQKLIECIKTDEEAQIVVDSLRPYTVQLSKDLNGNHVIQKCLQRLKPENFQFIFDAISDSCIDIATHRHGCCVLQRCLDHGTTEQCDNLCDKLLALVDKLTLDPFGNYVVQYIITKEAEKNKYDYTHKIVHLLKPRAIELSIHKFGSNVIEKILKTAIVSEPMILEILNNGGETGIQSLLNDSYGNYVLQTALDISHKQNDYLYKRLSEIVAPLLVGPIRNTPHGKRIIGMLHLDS
Assay: Mg; RNA-MaP; 20 mM Na-HEPES pH 7.4, 30 mM KOAc, 0.75 mM MgCl2, 0.1% Tween-20, 5% glycerol, 0.1 mg/mL BSA, 2 mM DTT; 25 C; 0.0125-409.6 nM protein
Details: tags: N-His6-TEV cleaved; C-SNAP kept, Cy3B-labelled; label: tethered on chip by stalled RNA polymerase
measurement-kind: Kd

- binder: "UCUCUUCCUGUAUAUACAUCUCUU (ssRNA) [Id_ii_S1_P3E.2_K3.1_C3.2_[T-1C]_H3.1_A3.1_F3.1_T3.2_[T9C]]"
  Kd: "17.7 nM"

QUERY: What does the record list as Kd for UCUCUUGUCUGUAUAUAUAUCUCUU (ssRNA) [Id_i_S1_P3E.5_K3.1_C3.3_[T-3G]_[C-2T]_[T-1C]_H3.1_A3.1_F3.1_T3.2] ?
RESULT: 4.63 nM

QUERY: Sample UCUCUUUAUGUAUAUUAUUUCUCUU (ssRNA) [Id_ii_S1_P4E.2_K4.1_C4.2_[C-2T]_[T-1A]_H4.1_A4.1_F4.1_T4.2_[G10T]] — what was its Kd?
RESULT: 1.07 nM

QUERY: State the recorded Kd for this entry: Id_ii_S2_P5E.2_K5.1_C5.2_[T-1G]_H5.1_A5.1_F5.1_T5.2_[T11A] (ssRNA) RNA: UUUGAUUAAUAUGAUAUCGUUCUUUCUCGUGUAUUAUUAAAUUCUUUCUCGAUAUCAUAUUAAUCUUU
RESULT: 3.97 nM

QUERY: Reported Kd, binder Id_ii_S2_P3E.3_K3.2_C3.2_[T-1C]_H3.2_A3.1_F3.1_T3.2_[T9A]_[A10G] (ssRNA) RNA: UUUGAUUAAUAUGAUAUCGUUCUUUCUCCUAUAUAUAAGUUCUUUCUCGAUAUCAUAUUAAUCUUU : ____
RESULT: 739 nM

QUERY: Need Kd, item Id_ii_S2_P5E.3_K5.2_C5.2_[C-2T]_[T-1G]_H5.2_A5.1_F5.1_T5.2_[T11G]_[A12T] (ssRNA) RNA: UUUGAUUAAUAUGAUAUCGUUCUUUCUUGUAUAUUAUUAGUUUCUUUCUCGAUAUCAUAUUAAUCUUU
RESULT: 0.685 nM
